- target-under-test: furin, P09958;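 further: purified furin at 1:10 enzyme:substrate in 50 mM HEPES pH 7.5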
- Sequence (P09958 whole entry): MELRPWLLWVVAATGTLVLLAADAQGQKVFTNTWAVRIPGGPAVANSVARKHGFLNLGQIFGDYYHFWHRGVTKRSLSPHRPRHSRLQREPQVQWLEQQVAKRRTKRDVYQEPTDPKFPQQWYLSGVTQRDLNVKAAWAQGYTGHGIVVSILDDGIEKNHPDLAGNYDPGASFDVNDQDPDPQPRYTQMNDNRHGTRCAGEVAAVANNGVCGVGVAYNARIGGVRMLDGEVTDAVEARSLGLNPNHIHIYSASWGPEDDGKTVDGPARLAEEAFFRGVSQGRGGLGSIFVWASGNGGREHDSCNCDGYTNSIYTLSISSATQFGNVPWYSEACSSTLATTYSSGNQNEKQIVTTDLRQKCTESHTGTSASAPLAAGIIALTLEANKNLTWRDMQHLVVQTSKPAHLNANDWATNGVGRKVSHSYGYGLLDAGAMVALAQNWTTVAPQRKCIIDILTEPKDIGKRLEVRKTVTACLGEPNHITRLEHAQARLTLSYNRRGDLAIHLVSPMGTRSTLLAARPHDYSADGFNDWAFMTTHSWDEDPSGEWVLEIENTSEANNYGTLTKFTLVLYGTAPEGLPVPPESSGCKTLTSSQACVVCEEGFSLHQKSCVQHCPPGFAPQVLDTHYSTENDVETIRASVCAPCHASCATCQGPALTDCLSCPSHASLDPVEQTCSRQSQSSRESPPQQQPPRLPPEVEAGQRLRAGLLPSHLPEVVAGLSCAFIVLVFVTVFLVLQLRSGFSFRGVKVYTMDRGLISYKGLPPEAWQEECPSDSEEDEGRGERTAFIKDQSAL
- assay-info: furin cleavage Z-score vs untreated control; higher = more cleavage, active = 3.5 or more, inactive = 1 or less, 8 variable residues between constant flanks
- condition-context: 30 min
This is one part of the list. The true hit rate is not given.
Form field: furin cleavage Z-score (one value per entry).
Would you mind answering with just the numeric figure?

Solved entries (count: 3):
[[record]]
sequence_string = "CARRRRASAPAGNASASA [FS-3062]"
recorded_number = 5.33

[[record]]
sequence_string = "CAEEVSFRVGAGNASASA [HC1232]"
recorded_number = -0.114

[[record]]
sequence_string = "CASVAATLGFAGNASASA [HC789]"
recorded_number = 0.352


Request: Give furin cleavage Z-score for the following sequence: CARRRRPGGPAGNASASA [FS-2792]
Response: 0.146

Request: Please look at this sequence and report its furin cleavage Z-score: CARRRRHSPPAGNASASA [FS-2453]
Response: 6.78

Request: State its furin cleavage Z-score for this sequence: CARRARVVWCAGNASASA [FS-1773]
Response: -1.05

Request: Look up furin cleavage Z-score of CARRARFVSKAGNASASA [FS-2592] and report it.
Response: 4.51
